Test system: HSV-1
procedure.details: Plaque reduction assay, HSV-1 clinical isolates on Vero cells
Type: cell-based
condition.set: Human alphaherpesvirus 1, Vero, read-out: Drug susceptibility Aciclovir (ACV), isolate HPG018, HSV-1 pol P1199T (3595C>A); also TK deletion (C) nt 881-885, pol A1169T
Text: Viral isolates were used to infect a sub-confluent monolayer of Vero cells at a concentration of 75 or 50 plaque forming units (PFU) per well for HSV-1 and HSV-2, respectively. […] CMC medium typically used to create a semisolid interface and prevents indiscrimate viral spreading. Other materials (e.g. agar) may also be used to create this interface. […]
pIC50: −log10 of the molar value.
value.type: pIC50

- compound: "Nc1nc2c(ncn2COCCO)c(=O)[nH]1 [Aciclovir, acyclovir]"
  result.value: "4.40 to 5.52"

Numbers sourced from patent US12281363B2.
